# Tested on: OVCAR-5 ovarian
# test: NCI-60 one-dose screen, 48 h (100 = growth as untreated, 0 = no growth, -100 = all killed)
# protocolConditions: 10 µM unless noted
About 83,000 compounds went through this panel and 20% of them were active in at least one assay; those are over-represented in the sample as a whole.
Can you tell me growth for the items I'm about to list?
One number for each entry, in %.

Some solved entries appear below for comparison.
>  <molecule>
Cc1ccc(Cc2c(C=O)nc(N)[nH]c2=O)c2ccccc12

>  <assayedTarget>
OVCAR-5 ovarian

>  <growth / %>
117

$$$$
>  <molecule>
CC(C)C(C(=O)NCCN1CCOCC1)N1C(=O)/C(=C/c2ccc(Br)cc2)SC1=S (stereo not given)

>  <assayedTarget>
OVCAR-5 ovarian

>  <growth / %>
102

$$$$
>  <molecule>
N/C(=N\C(N)=N\c1nc2ccccc2s1)c1cccc(Br)c1

>  <assayedTarget>
OVCAR-5 ovarian

>  <growth / %>
95.2

$$$$
>  <molecule>
COc1cccc(/C=C2\Oc3cc(OCCCN4CCCC4)ccc3C2=O)c1

>  <assayedTarget>
OVCAR-5 ovarian

>  <growth / %>
89.1

$$$$
>  <molecule>
CC(C)(C)n1cc(-c2ccnc(NCCCNS(=O)(=O)c3cccc(F)c3)c2)c(-c2cccc(O)c2)n1

>  <assayedTarget>
OVCAR-5 ovarian

>  <growth / %>
68.2

$$$$
>  <molecule>
Nc1cccc(Cl)c1N

>  <assayedTarget>
OVCAR-5 ovarian

>  <growth / %>
108

$$$$
>  <molecule>
Clc1cc(Cl)c2nc(-c3ccc(-c4ccc(/C=N/NC5=NCCN5)cc4)s3)cn2c1

>  <assayedTarget>
OVCAR-5 ovarian

>  <growth / %>
104

$$$$
>  <molecule>
COc1ccc(-c2[nH]nc(N)c2-c2cc(OC)c3c(c2)OCO3)cc1

>  <assayedTarget>
OVCAR-5 ovarian

>  <growth / %>
70

$$$$
>  <molecule>
CN(C)c1ncnc2c1ccn2C1OC(CO)C(O)C1O (stereo not given)

>  <assayedTarget>
OVCAR-5 ovarian

>  <growth / %>
39.5

$$$$

API: the following record is the query input.
Input: GET /values?readout=growth&item= `COc1ccc(/C=C\c2cc(OC)c(OC)c(OC)c2)cc1OC(=O)c1cccc(Cn2cc(CCOC(=O)c3cccc(Cn4nnc5c4C(=O)c4ccccc4C5=O)c3)nn2)c1`
Output: 28.8

----------
Can you tell me growth for the items I'm about to list?
# System: OVCAR-3 ovarian
# test: NCI-60 one-dose screen, 48 h (100 = growth as untreated, 0 = no growth, -100 = all killed)
# protocolConditions: 10 µM unless noted
The panel holds about 83,000 compounds, 20% with a hit somewhere; the sample as a whole holds those more often.
Numbers only, in %.

Some solved entries appear below for comparison.
>  <compound>
N#Cc1ccc(N2Cc3ccccc3OC3=C2C(=O)c2c(O)ccc(O)c2C3=O)cc1

>  <recordedMeasurement>
-93.2

$$$$
>  <compound>
COc1cc(C2CC(c3ccc4c(c3)OCO4)=NN2C(C)=O)cc(OC)c1OC (centres undefined)

>  <recordedMeasurement>
-5.71

$$$$
>  <compound>
C=C(C)[C@@H]1CC[C@]2(C(=O)O)CC[C@]3(C)[C@H](CC[C@@H]4[C@@]5(C)C[C@@H](CC#Cc6ccc(C(F)(F)F)cc6)[C@H](O)C(C)(C)[C@@H]5CC[C@]43C)[C@@H]12

>  <recordedMeasurement>
-3.44

$$$$

API: the following record is the query input.
Input: GET /values?readout=growth&item= `CCCOC(=O)n1cccc1`
Output: 106

The origin of these recorded values is PubChem BioAssay (NCI).
